Target: cloned human μ-opioid receptor (Homo sapiens)
Construct: expressed in transfected cells
Sequence (P35372 whole entry): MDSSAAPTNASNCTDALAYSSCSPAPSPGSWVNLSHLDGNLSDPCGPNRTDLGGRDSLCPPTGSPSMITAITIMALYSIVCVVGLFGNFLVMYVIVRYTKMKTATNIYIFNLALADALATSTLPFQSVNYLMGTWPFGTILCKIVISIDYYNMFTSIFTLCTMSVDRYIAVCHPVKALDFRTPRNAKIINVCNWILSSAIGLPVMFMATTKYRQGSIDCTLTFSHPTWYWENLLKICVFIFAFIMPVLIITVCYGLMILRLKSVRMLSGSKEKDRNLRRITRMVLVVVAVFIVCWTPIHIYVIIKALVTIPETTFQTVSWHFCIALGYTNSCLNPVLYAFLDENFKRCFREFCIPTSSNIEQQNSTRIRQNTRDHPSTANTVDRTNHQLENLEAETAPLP
Assay: Inhibition of DAMGO-stimulated [35S]GTPγS binding
Type: biochemical
Details: antagonism of DAMGO-stimulated [35S]GTPγS binding, cloned human μ receptor; read-out: μ, DAMGO Ke
Structures can show the parent of a compound that is named as a salt.
observedProperty: Kb

[
  {
    "molecule": "CC(C)[C@@H](CN1CCN(c2cccc(O)c2)[C@@H](C)C1)NC(=O)c1ccc(Oc2ccccc2F)cc1.Cl.Cl [Compound 19a, Dihydrochloride]",
    "studySystem": "cloned human μ-opioid receptor (Homo sapiens)",
    "testResult": "21.1 nM"
  },
  {
    "molecule": "CC(C)[C@@H](CN1CCN(c2cccc(O)c2)[C@@H](C)C1)NC(=O)c1ccc(Oc2cccc(Cl)c2)cc1.Cl.Cl [Compound 19c, Dihydrochloride]",
    "studySystem": "cloned human μ-opioid receptor (Homo sapiens)",
    "testResult": "18 nM"
  },
  {
    "molecule": "CC(C)[C@@H](CN1CCN(c2cccc(O)c2)[C@@H](C)C1)NC(=O)c1ccc(Oc2ccccc2)cn1 [Compound 7a, Trihydrochloride]",
    "studySystem": "cloned human μ-opioid receptor (Homo sapiens)",
    "testResult": "101 nM"
  },
  {
    "molecule": "Cc1cccc(Oc2ccc(C(=O)N[C@H](CN3CCN(c4cccc(O)c4)[C@@H](C)C3)C(C)C)cc2Cl)c1.Cl.Cl [Compound 6l, Dihydrochloride]",
    "studySystem": "cloned human μ-opioid receptor (Homo sapiens)",
    "testResult": "43 nM"
  },
  {
    "molecule": "Cc1cccc(Oc2ccc(C(=O)N[C@H](CN3CCN(c4cccc(O)c4)[C@@H](C)C3)C(C)C)cc2)c1O.Cl.Cl [Compound 19e, Dihydrochloride]",
    "studySystem": "cloned human μ-opioid receptor (Homo sapiens)",
    "testResult": "23.8 nM"
  },
  {
    "molecule": "Cc1cccc(Oc2ccc(C(=O)N[C@H](CN3CCN(c4cccc(O)c4)[C@@H](C)C3)C(C)C)cc2O)c1.Cl.Cl [Compound 19i, Dihydrochloride]",
    "studySystem": "cloned human μ-opioid receptor (Homo sapiens)",
    "testResult": "13.7 nM"
  },
  {
    "molecule": "Cc1ccc(O)c(Oc2ccc(C(=O)N[C@H](CN3CCN(c4cccc(O)c4)[C@@H](C)C3)C(C)C)cc2Cl)c1.Cl.Cl [Compound 19p, Dihydrochloride]",
    "studySystem": "cloned human μ-opioid receptor (Homo sapiens)",
    "testResult": "8.2 nM"
  },
  {
    "molecule": "COc1cc(C(=O)N[C@H](CN2CCN(c3cccc(O)c3)[C@@H](C)C2)C(C)C)ccc1Oc1ccccc1O.Cl.Cl [Compound 19m, Dihydrochloride]",
    "studySystem": "cloned human μ-opioid receptor (Homo sapiens)",
    "testResult": "74 nM"
  },
  {
    "molecule": "Cc1cccc(Oc2ccc(C(=O)N[C@H](CN3CCN(c4cccc(O)c4)[C@@H](C)C3)C(C)C)cc2C)c1.Cl.Cl [Compound 19g, Dihydrochloride]",
    "studySystem": "cloned human μ-opioid receptor (Homo sapiens)",
    "testResult": "14.4 nM"
  },
  {
    "molecule": "COc1cc(Oc2cccc(C)c2)ccc1C(=O)N[C@H](CN1CCN(c2cccc(O)c2)[C@@H](C)C1)C(C)C.Cl.Cl [Compound 19k, Dihydrochloride]",
    "studySystem": "cloned human μ-opioid receptor (Homo sapiens)",
    "testResult": "49 nM"
  },
  {
    "molecule": "COc1cc(C(=O)N[C@H](CN2CCN(c3cccc(O)c3)[C@@H](C)C2)C(C)C)ccc1Oc1cccc(C)c1.Cl.Cl [Compound 19h, Dihydrochloride]",
    "studySystem": "cloned human μ-opioid receptor (Homo sapiens)",
    "testResult": "35.1 nM"
  },
  {
    "molecule": "CC(C)[C@@H](CN1CCN(c2cccc(O)c2)[C@@H](C)C1)NC(=O)c1ccc(Oc2cccc(Br)c2)cc1.Cl.Cl [Compound 19d, Dihydrochloride]",
    "studySystem": "cloned human μ-opioid receptor (Homo sapiens)",
    "testResult": "17 nM"
  },
  {
    "molecule": "Cc1cc(C)cc(Oc2ccc(C(=O)N[C@H](CN3CCN(c4cccc(O)c4)[C@@H](C)C3)C(C)C)cc2)c1.Cl.Cl [Compound 19f, Dihydrochloride]",
    "studySystem": "cloned human μ-opioid receptor (Homo sapiens)",
    "testResult": "25 nM"
  }
]

---

// reported μ/κ for each item listed
Biological target: cloned human κ-opioid receptor (Homo sapiens)
Construct: expressed in transfected cells
Assay: Inhibition of U69,593-stimulated [35S]GTPγS binding
Type: biochemical
Conditions: ratio of Ke values, selectivity for κ relative to μ
observedProperty: μ/κ

[
  {
    "molecule": "Cc1cccc(Oc2ccc(C(=O)N[C@H](CN3CCN(c4cccc(O)c4)[C@@H](C)C3)C(C)C)cc2O)c1.Cl.Cl [Compound 19i]",
    "testResult": 24
  },
  {
    "molecule": "COc1cc(C(=O)N[C@H](CN2CCN(c3cccc(O)c3)[C@@H](C)C2)C(C)C)ccc1Oc1cc(C)ccc1O.Cl.Cl [Compound 19o]",
    "testResult": 2
  },
  {
    "molecule": "COc1cc(C(=O)N[C@H](CN2CCN(c3cccc(O)c3)[C@@H](C)C2)C(C)C)ccc1Oc1ccccc1O.Cl.Cl [Compound 19m]",
    "testResult": 5
  },
  {
    "molecule": "CC(C)[C@@H](CN1CCN(c2cccc(O)c2)[C@@H](C)C1)NC(=O)c1ccc(Oc2cccc(Br)c2)cc1.Cl.Cl [Compound 19d]",
    "testResult": 35
  }
]

---

Biological target: cloned human κ-opioid receptor (Homo sapiens, UniProt P41145)
Construct: expressed in transfected cells
Sequence (P41145 whole entry): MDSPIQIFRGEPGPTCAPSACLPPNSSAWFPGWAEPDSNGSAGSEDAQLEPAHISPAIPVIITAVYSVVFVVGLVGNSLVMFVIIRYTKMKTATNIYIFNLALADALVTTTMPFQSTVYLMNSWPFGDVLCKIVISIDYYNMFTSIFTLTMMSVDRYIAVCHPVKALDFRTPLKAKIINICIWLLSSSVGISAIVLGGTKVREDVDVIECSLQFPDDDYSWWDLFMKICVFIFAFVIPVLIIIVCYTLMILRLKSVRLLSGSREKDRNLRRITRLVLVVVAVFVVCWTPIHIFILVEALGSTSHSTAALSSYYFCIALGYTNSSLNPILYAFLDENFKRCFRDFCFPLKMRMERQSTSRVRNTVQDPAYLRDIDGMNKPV
Experiment: Inhibition of U69,593-stimulated [35S]GTPγS binding
Assay type: biochemical
Conditions: ratio of Ke values, selectivity for κ relative to δ
// reported δ/κ for each item listed

[
  {
    "compound": "CC(C)[C@@H](CN1CCN(c2cccc(O)c2)[C@@H](C)C1)NC(=O)c1ccc(Oc2cccc(O)c2)cc1.Cl.Cl",
    "studySystem": "cloned human κ-opioid receptor (Homo sapiens, UniProt P41145)",
    "δ/κ": 338
  },
  {
    "compound": "CC(C)[C@@H](CN1CCN(c2cccc(O)c2)[C@@H](C)C1)NC(=O)c1ccc(Oc2ccccc2)nc1.Cl.Cl.Cl",
    "studySystem": "cloned human κ-opioid receptor (Homo sapiens, UniProt P41145)",
    "δ/κ": 1119
  },
  {
    "compound": "Cc1cc(C)cc(Oc2ccc(C(=O)N[C@H](CN3CCN(c4cccc(O)c4)[C@@H](C)C3)C(C)C)cc2)c1.Cl.Cl [Compound 19f]",
    "studySystem": "cloned human κ-opioid receptor (Homo sapiens, UniProt P41145)",
    "δ/κ": 80
  },
  {
    "compound": "Cc1ccc(Oc2ccc(C(=O)N[C@H](CN3CCN(c4cccc(O)c4)[C@@H](C)C3)C(C)C)cc2)cc1.Cl.Cl",
    "studySystem": "cloned human κ-opioid receptor (Homo sapiens, UniProt P41145)",
    "δ/κ": 275
  }
]

---

[
  {
    "compound": "Cc1cccc(Oc2ccc(C(=O)N[C@H](CN3CCN(c4cccc(O)c4)[C@@H](C)C3)C(C)C)cc2)c1O.Cl.Cl [Compound 19e]",
    "melting point": "173 °C"
  },
  {
    "compound": "Cc1cccc(Oc2ccc(C(=O)N[C@H](CN3CCN(c4cccc(O)c4)[C@@H](C)C3)C(C)C)c(C)c2)c1.Cl.Cl [Compound 19j]",
    "melting point": "164 to 167 °C"
  },
  {
    "compound": "CC(C)[C@@H](CN1CCN(c2cccc(O)c2)[C@@H](C)C1)NC(=O)c1ccc(Oc2cccc(C(F)(F)F)c2)cc1 [Compound 19b]",
    "melting point": "110 to 115 °C"
  },
  {
    "compound": "COc1cc(C(=O)N[C@H](CN2CCN(c3cccc(O)c3)[C@@H](C)C2)C(C)C)ccc1Oc1cc(C)ccc1O.Cl.Cl [Compound 19o]",
    "melting point": "100 to 103 °C"
  },
  {
    "compound": "Cc1cc(C)cc(Oc2ccc(C(=O)N[C@H](CN3CCN(c4cccc(O)c4)[C@@H](C)C3)C(C)C)cc2)c1.Cl.Cl [Compound 19f]",
    "melting point": "117 to 120 °C"
  },
  {
    "compound": "COc1cc(C(=O)N[C@H](CN2CCN(c3cccc(O)c3)[C@@H](C)C2)C(C)C)ccc1Oc1cccc(C)c1.Cl.Cl [Compound 19h]",
    "melting point": "128 to 131 °C"
  },
  {
    "compound": "COc1cc(Oc2cccc(C)c2)ccc1C(=O)N[C@H](CN1CCN(c2cccc(O)c2)[C@@H](C)C1)C(C)C.Cl.Cl [Compound 19k]",
    "melting point": "99 to 102 °C"
  },
  {
    "compound": "CC(C)[C@@H](CN1CCN(c2cccc(O)c2)[C@@H](C)C1)NC(=O)c1ccc(Oc2ccccc2F)cc1.Cl.Cl [Compound 19a]",
    "melting point": "156 to 159 °C"
  },
  {
    "compound": "Cc1ccc(O)c(Oc2ccc(C(=O)N[C@H](CN3CCN(c4cccc(O)c4)[C@@H](C)C3)C(C)C)cc2)c1.Cl.Cl [Compound 6m]",
    "melting point": "179 to 183 °C"
  },
  {
    "compound": "Cc1cccc(Oc2ccc(C(=O)N[C@H](CN3CCN(c4cccc(O)c4)[C@@H](C)C3)C(C)C)c(O)c2)c1.Cl.Cl [Compound 19l]",
    "melting point": "119 to 123 °C"
  },
  {
    "compound": "CC(C)[C@@H](CN1CCN(c2cccc(O)c2)[C@@H](C)C1)NC(=O)c1ccc(Oc2ccccc2)nc1.Cl.Cl.Cl [Compound 7b]",
    "melting point": "168 to 170 °C"
  },
  {
    "compound": "Cc1cccc(Oc2ccc(C(=O)N[C@H](CN3CCN(c4cccc(O)c4)[C@@H](C)C3)C(C)C)cc2Cl)c1.Cl.Cl [Compound 6l]",
    "melting point": "154 to 158 °C"
  },
  {
    "compound": "CC(C)[C@@H](CN1CCN(c2cccc(O)c2)[C@@H](C)C1)NC(=O)c1ccc(Oc2cccc(Cl)c2)cc1.Cl.Cl [Compound 19c]",
    "melting point": "103 to 105 °C"
  }
]

Taken from patent US9512105B2.
